# credit: PubChem BioAssay (NCI)

- Tested on: U251 CNS
- Assay Text: NCI tumour cell line growth inhibition, 48 h
Property Name: TGI

// worked examples, TGI included
- Compound: "Cc1ccc2c(c1)c(=O)c1c(NCCN(C)C)ccc3nnn2c31"
  Target Of Assay: "U251 CNS"
  Property Name: "TGI"
  Result Value: "16.9 µM"
- Compound: "Cc1ccc(NC(=O)CCC(=O)C2CC(=O)CC/C2=N\\NC(=O)c2cc3ccccc3cc2O)cc1C (stereo unspecified)"
  Target Of Assay: "U251 CNS"
  Property Name: "TGI"
  Result Value: "> 100 µM"
- Compound: "S=C(Nc1ccccc1)Nc1[nH]c(=S)sc1-c1nc2ccccc2[nH]1"
  Target Of Assay: "U251 CNS"
  Property Name: "TGI"
  Result Value: "> 100 µM"

Alright, here's another compound for you.
stdin: Given the entry Cn1c(N)c(/C=N/NC(=O)CC#N)c(=O)n(C)c1=O , report its measured TGI.
stdout: > 100 µM
